TGT: 5-hydroxytryptamine receptor 2C (Homo sapiens, UniProt P28335)
Sequence (P28335 whole entry): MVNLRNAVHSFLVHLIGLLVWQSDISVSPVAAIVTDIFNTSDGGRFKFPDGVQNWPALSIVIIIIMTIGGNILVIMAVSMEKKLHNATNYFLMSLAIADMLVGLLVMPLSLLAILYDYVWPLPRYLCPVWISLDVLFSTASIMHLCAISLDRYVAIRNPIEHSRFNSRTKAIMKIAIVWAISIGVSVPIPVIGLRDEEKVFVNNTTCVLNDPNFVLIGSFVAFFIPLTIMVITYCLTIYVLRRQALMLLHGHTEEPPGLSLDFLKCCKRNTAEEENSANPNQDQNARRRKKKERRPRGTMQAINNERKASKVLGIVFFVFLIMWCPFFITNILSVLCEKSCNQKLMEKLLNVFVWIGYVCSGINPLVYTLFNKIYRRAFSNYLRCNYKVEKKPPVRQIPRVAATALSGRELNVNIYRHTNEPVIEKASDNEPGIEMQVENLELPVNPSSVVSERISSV
ENDPOINT LABEL: pKi
The read-out pKi is expressed as -log10 of concentration in moles per litre.

**Q:** Look at this compound and give its reported pKi. CN1CCC[C@@H]1Cc1c[nH]c2ccc(NS(=O)(=O)c3cccc(Cl)c3)cc12
**A:** 6.64

**Q:** Look at this compound and give its reported pKi. CN1CCC[C@@H]1Cc1c[nH]c2ccc(NS(=O)(=O)c3ccccc3Cl)cc12
**A:** 6.54

**Q:** Look at this compound and give its reported pKi. O=S(=O)(Nc1ccc2[nH]cc(C[C@H]3CCCN3)c2c1)c1ccccc1Cl
**A:** 6.25

====

Consider the following compounds; for each one, report its pEC50.
TGT: 5-hydroxytryptamine receptor 6 (Homo sapiens)
Sequence (P50406 whole entry): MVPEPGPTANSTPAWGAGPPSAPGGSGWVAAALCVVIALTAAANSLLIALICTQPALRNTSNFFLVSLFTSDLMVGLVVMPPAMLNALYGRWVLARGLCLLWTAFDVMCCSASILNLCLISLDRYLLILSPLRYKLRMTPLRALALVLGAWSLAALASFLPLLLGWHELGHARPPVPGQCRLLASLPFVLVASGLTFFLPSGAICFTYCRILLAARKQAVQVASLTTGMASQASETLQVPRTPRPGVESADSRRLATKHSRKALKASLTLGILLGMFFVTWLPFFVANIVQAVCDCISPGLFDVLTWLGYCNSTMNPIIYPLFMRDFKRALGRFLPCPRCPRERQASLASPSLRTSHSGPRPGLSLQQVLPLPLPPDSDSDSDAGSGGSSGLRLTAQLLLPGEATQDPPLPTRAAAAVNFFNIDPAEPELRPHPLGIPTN
METHOD DESCRIPTION: Effective agonist concentration in cAMP release assay in HeLa cells expressing human 5-hydroxytryptamine 6 receptor
The read-out pEC50 is expressed as -log10 of concentration in moles per litre.

**Q:** Look at this compound and give its reported pEC50. O=S(=O)(Nc1ccc2[nH]cc(C[C@H]3CCCN3)c2c1)c1ccccc1Cl
**A:** 8.89

**Q:** Look at this compound and give its reported pEC50. CN1CCC[C@@H]1Cc1c[nH]c2ccc(NS(=O)(=O)c3ccc(I)cc3)cc12
**A:** 8.57

**Q:** Look at this compound and give its reported pEC50. CN1CCC[C@@H]1Cc1c[nH]c2ccc(NS(=O)(=O)c3ccccc3Cl)cc12
**A:** 8.96

**Q:** Look at this compound and give its reported pEC50. O=S(=O)(Nc1ccc2[nH]cc(C[C@H]3CCCN3)c2c1)c1ccc(Cl)cc1
**A:** 8.35

**Q:** Look at this compound and give its reported pEC50. Cc1ccc(S(=O)(=O)Nc2ccc3[nH]cc(C[C@H]4CCCN4C)c3c2)cc1
**A:** 8.89

**Q:** Look at this compound and give its reported pEC50. CN1CCC[C@@H]1Cc1c[nH]c2ccc(NS(=O)(=O)c3ccc(C(F)(F)F)cc3)cc12
**A:** 8.35

**Q:** Look at this compound and give its reported pEC50. O=S(=O)(Nc1ccc2[nH]cc(C[C@H]3CCCN3)c2c1)c1cccc(C(F)(F)F)c1
**A:** 8.24

**Q:** Look at this compound and give its reported pEC50. CN1CCC[C@@H]1Cc1c[nH]c2ccc(NS(=O)(=O)c3ccccc3F)cc12
**A:** 8.89

**Q:** Look at this compound and give its reported pEC50. CN1CCC[C@@H]1Cc1c[nH]c2ccc(NS(=O)(=O)c3ccc(F)cc3)cc12
**A:** 8.96
